# system under test: T1, human TIGIT over-expressed on cells (human, UniProt Q495A1 22-244)
# T1 construct: also called CHO-K1/human TIGIT cells; CHO cells expressing human TIGIT
# T1 sequence: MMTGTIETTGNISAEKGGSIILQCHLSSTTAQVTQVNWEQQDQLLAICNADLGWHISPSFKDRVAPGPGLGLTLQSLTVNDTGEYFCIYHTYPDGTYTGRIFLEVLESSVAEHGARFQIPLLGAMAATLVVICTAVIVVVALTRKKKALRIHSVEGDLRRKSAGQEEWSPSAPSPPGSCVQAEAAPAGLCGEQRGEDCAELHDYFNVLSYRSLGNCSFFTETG
# procedure text: competition FACS, CHO cells expressing human TIGIT; competitor PVR recombinant protein
measured parameter: Top (best-fit)
Enter a number only.

INPUT: For the binder shown here, 100C4E7D11VH1_VL1 (antibody, V domains shown, Humanized antibody, variable domains fused with the constant region of human IgG1; also called 100C4VH1_VL1) VH: EVQLVESGGGLVKPGGSLRLSCAASGFTFSFYTMSWVRQAPGKGLEWVSTISSGGGSTYYSDSVKGRFTISRDNAKNSLYLQMNSLRAEDTAVYYCARSLPVDYWGQGTTVTVSS VL: EIVLTQSPGTLSLSPGERATLSCTASSSVSSTYLHWYQQKPGQAPRLLIYSTSNLASGIPDRFSGSGSGTDFTLTISRLEPEDFAVYYCHLYHHSPYTFGGGTKVEIK , give the reported Top (best-fit).
OUTPUT: 755
